system: estrogen receptors of type II; assay: Binding affinity to estrogen receptors of type II (displacement of labelled estradiol in tumour cells); details: read-out: IC50 *** Concentration giving a 50% displacement of labelled estradiol (40 nM) from the receptor; labelled estradiol 40 nM
Field: label. Allowed values: label 1 (IC50 < 3 µM) or label 0 (IC50 >= 3 µM).

                                   molecule  class_label
0  O=C(/C=C/c1ccc(O)cc1)c1ccc(O)cc1O [Chalcone S6, 4,2',4'-trihydroxychalcone]      label 0
1  CC(C)=CCOc1ccc(C(=O)/C=C/c2ccccc2)c(O)c1 [Chalcone S7, Cordoin]      label 0
2  O=C(/C=C/c1ccccc1)c1ccc(O)cc1O [Chalcone S5, 2',4'-dihydroxychalcone]      label 1
3  CC(C)=CCc1c(O)ccc(C(=O)/C=C/c2ccccc2)c1O [Chalcone S1, Isocordoin]      label 1
4  COc1ccc(C(=O)/C=C/c2cccc(O)c2)c(O)c1CC=C(C)C [Chalcone S4, 3-hydroxyderricin]      label 0
5  COc1ccc(C(=O)/C=C/c2ccc(O)cc2)c(O)c1CC=C(C)C [Chalcone S2, 4-hydroxyderricin]      label 0
6  COc1ccc(C(=O)/C=C/c2ccccc2O)c(O)c1CC=C(C)C [Chalcone S3, 2-hydroxyderricin]      label 0
